# ASSAY_INFO: Plasma concentration of the drug in the human clinical study
# Format: in vivo
# CONDITION_PARAMETERS: 2 hours after administration in the morning, 2.5 mg b.i.d.-10 mg b.i.d., patients
READOUT: concentration at 2 h

Consider CCCNCCOc1cc(F)cc(S(C)(=O)=O)c1 [Example 7] . Its measured concentration at 2 h is 50 to 200 nM

Where do the numbers come from? From patent US12275694B2.
